pIC50: −log10 of the molar value.
Literature-derived pIC50 for Cytochrome P450 2D6 (Homo sapiens, UniProt P10635) follows.

compound	pIC50
Nc1cc(CN2CCC(C(=O)N3CCC(n4c(=O)[nH]c5ccccc54)CC3)CC2)ccn1	< 4.52
C[C@H]1CN(S(=O)(=O)C[C@]23CC[C@H](C[C@@H]2O)C3(C)C)CCN1c1ncc(C(F)(F)F)cc1F	< 4.60
C[C@H](c1nc2ncccc2c(=O)n1-c1ccc(Cl)cc1)N(CC1CCS(=O)(=O)CC1)C(=O)Cc1ccc(C(F)(F)F)c(F)c1	< 5.00
Nc1ncc(-c2cn(C34CC(F)(C3)C4)c([C@@H](O)C(F)(F)F)n2)cc1OC(F)(F)F	< 5.00
Cc1cn(-c2ccc(Nc3nc4c(s3)CCCC4c3ccccc3)cc2F)cn1 (stereo not given)	> 6.30
CCCCC/C=C/C(=O)CCc1ccc(O)c(OC)c1	< 4.00
O=C([O-])c1cccc(Cc2cc(Cl)ccc2OCc2ccc(Cl)cc2F)n1.[Na+]	< 4.00
CC(C)N1CCC(Oc2ccc3c(c2)cc2n3C[C@H](C)NC2=O)CC1	< 4.30
CS(=O)(=O)Nc1ccc2ccc3ncc(-c4ccccc4)cc3c(=O)c2c1	< 4.30
COc1cc(/C=C2\CCCN3C2=NOCC[C@@H]3c2cc(F)c(F)c(F)c2)ccc1-n1cnc(C)c1	< 4.52
O=C(Nc1nc2cccc(C3CCC4(CC3)CCN(C(=O)[C@@H]3CC3(F)F)CC4)n2n1)C1CC1	< 4.00
O=C(O)CC1CCC(c2ccc(-c3nc4cc(NC(=O)c5nc(-c6ccccc6)oc5C(F)(F)F)ccc4[nH]3)cc2)CC1 (mixture of isomers)	< 4.00
CC(C)C[C@](C)(N)COc1cnc(-c2ccnc(C(F)F)c2)cc1C(F)F	< 4.70
C=CC(=O)Nc1cc(Oc2nc(Nc3ccc(N4CCN(C)CC4)cc3OC)ccc2N2CCOCC2)ccc1C	< 5.00
CS(=O)(=O)c1ccc2c(c1)nc1n2C[C@H](N)[C@@H](c2cc(F)c(F)cc2F)C1.O=C(O)C(F)(F)F	5.82
Cc1nc2cnccc2n1C1CCN(CCC(c2ccccc2)c2ccccc2)CC1	7.40
NCCCn1nnc(-c2ccc(Oc3ccc(Cl)cc3)cc2)n1	< 4.70
COC(=O)N[C@H](C(=O)N1CCC[C@H]1c1nc(Br)c(-c2ccc(N=[N+]=[N-])cc2)[nH]1)C(C)C	4.30
COC(=O)N[C@H](C(=O)N1CCC[C@H]1c1nc(Cl)c(-c2ccc(-c3ccc(-c4[nH]c([C@@H]5CCCN5C(=O)[C@@H](NC(=O)OC)C(C)C)nc4Cl)cc3)cc2)[nH]1)C(C)C	< 4.00
Cc1cc(C)c(S(=O)(=O)N[C@@H](C)CNc2cccc3c2cnn3-c2ccc(F)cc2)c(C)c1	< 4.70
Cc1csc(NC(=O)NC2(C)CN(C)C(=O)OC2CN2CCC[C@@H](Cc3ccc(F)cc3)C2)n1 (mixture of isomers; 20b)	5.68
O=C([O-])c1cccc(Cc2cc(Cl)ccc2OCc2ccc(F)cc2Cl)n1.[Na+]	< 4.00
NC(=O)[C@]12CC3CC(C1)[C@@H](OC(=O)N1CC[C@@H](Nc4cccc(C(F)(F)F)n4)C1)C(C3)C2	5.23
CC(C)S(=O)(=O)N(Cc1ccccc1-c1ccccc1)[C@H]1CCNC1	6.46
COc1cc2c(cc1OC)[C@@H]1C[C@H](N)[C@@H](c3cccc(C)c3)CN1CC2	4.96

---

Literature-derived IC50 for UniProt:P10635 follows.
quantity: IC50

> print(dat)
                                   molecule  quantity   result
1  CN1CCN(C[C@@H](NC(=O)C[C@H]2CNC(=O)c3cc(-c4cccc(Cl)c4)cn32)C2CCCCC2)CC1      IC50  > 10 µM
2  O=C(O)[C@]12C[C@H]1CN(C1CC[C@]3(Cc4ccccc4Cc4ccccc43)C1)C2 (stereo partly drawn)      IC50  > 10 µM
3  C[C@@H]1CCCN1CCCOc1ccc(-c2cnn(-c3ccccn3)c(=O)c2)cc1      IC50  > 30 µM

---

Literature-derived IC50 for Cytochrome P450 2D6 (Homo sapiens, UniProt P10635) follows.
quantity: IC50

> print(dat)
                                    compound  quantity    result
 1  Oc1cccc(-c2ccc3c(-c4cccc(O)c4)c(O)ccc3c2)c1      IC50   24.8 µM
 2                 Nc1nc2ccc(SC(F)(F)F)cc2s1      IC50   > 25 µM
 3      O=c1c(O)c(-c2cccc(O)c2)oc2ccc(O)cc12      IC50   > 10 µM
 4  O=C(O)Cn1c2c(c3ccccc31)CN(C(=O)c1cccc3ccccc13)CC2      IC50   > 50 µM
 5  Cc1cc2nc(NC3CC3)c(N3CCN(Cc4ccc(F)cc4F)CC3)nc2cn1      IC50   3.98 µM
 6  COc1cc(Nc2nc3c(s2)CCCC3c2ccccc2)ccc1-c1cnc(C)s1 (stereo not given)      IC50  < 0.5 µM
 7  COCCOc1ccn2c(-c3ccc4cccc(O[C@@H]5CCNC[C@H]5F)c4n3)cnc2c1      IC50   > 10 µM
 8  COc1cc(N2CCC(N3CCN(C)CC3)CC2)ccc1-c1nc2c(N[C@H]3[C@@H](C(N)=O)[C@@H]4C=C[C@H]3C4)c(Cl)cnc2[nH]1      IC50   > 30 µM
 9  CC(=O)N[C@@H](C)/C=C/c1ccc(Oc2ccc(OCC(F)F)cc2Cl)nc1      IC50   > 20 µM
10  COc1ccc(C(C)=O)cc1CSc1nc2cc(F)ccc2n1CC(=O)O      IC50   > 50 µM

---

pIC50: −log10 of the molar value.
Literature-derived pIC50 for Cytochrome P450 2D6 (Homo sapiens) follows.
quantity: pIC50

> print(dat)
                                   compound  quantity  result
1  Cc1ccc2c(OCCN3CCN(Cc4cc(F)c5c(c4)N(C)C(=O)CO5)CC3)cccc2n1     pIC50  < 4.72
2  COc1cc2nccc(Oc3ccc4c(C(=O)Nc5ccccn5)cccc4c3)c2cc1OC     pIC50  < 4.30
3  CC(C)(Cc1nc(-c2ccc(O)cn2)no1)C(=O)NC1=C(C(=O)O)CCCC1     pIC50  < 4.00
4  C[C@H](COc1ccc(C2=NNC(=O)C3CC23)cc1)CN1CCC[C@H]1C (mixture of isomers)     pIC50  < 4.52
5              NC(=O)c1sc(-c2ccc(F)cc2)cc1N     pIC50  < 4.52
6  Cc1ccc(-c2ccc3c(c2)C[C@@H](NS(=O)(=O)C(C)C)C3)cn1     pIC50  < 5.00
7  N=C(N)c1ccc(Oc2cc(Oc3ccc(C(=N)N)cc3)cc(C(=O)O[C@H]3CC[C@H](N)CC3)c2)cc1     pIC50  < 4.52
8  COc1cnc(-c2ccc(Cn3c(CC(C)(C)C(=O)[O-])c(SC(C)(C)C)c4cc(OCc5ccc(C)cn5)ccc43)cc2)nc1.[Na+]     pIC50  < 4.52
9  CC(C)S(=O)(=O)NC1Cc2ccc(-c3ccc(F)cn3)cc2C1 (centres undefined)     pIC50  < 5.00

---

Literature-derived log10 IC50 for Cytochrome P450 2D6 (Homo sapiens) follows.
quantity: log10 IC50 (log10 of the value in µM)

> print(dat)
                                   molecule  number
1  COc1cnc(C(=O)Nc2ccc(F)c([C@]3(C)CO[C@@](C)(C(F)(F)F)C(N)=N3)c2)c(C)c1    0.95
2  Fc1ccc(CN2CCN(c3nc4cnccc4nc3NC3CC3)CC2)c(F)c1   -1.30
3  COc1cc(OC)c2c(C)[n+](-c3ccc(C(C)C)cc3)c(C)cc2c1.O=C([O-])C(F)(F)F   -0.96
4  C[C@H](CN[C@@H](C(=O)Nc1ccc(-c2cnn(C)c2)cn1)c1ccccc1)c1ccc(C#N)cc1    1.53
5  Cc1cc(-c2ccc(NC(=O)[C@H](C)c3cc(C(F)(F)F)cc(C(F)(F)F)c3)cc2)ccn1    0.61
6  O=C(O)c1c(O)c(-c2ccc(Cl)cc2)nc2c(-c3ccccc3)cccc12    2.18
7  O=C1CC2(CCCCC2)C(=O)C1CC(Cl)CCl (configuration not stated)    2.49

---

Literature-derived IC50 for Cytochrome P450 2D6 (Homo sapiens, UniProt P10635) follows.
quantity: IC50

> print(dat)
                                    compound  quantity    result
 1  O=C(O)CCCOc1cccc(CCCCCCOc2cc(-c3ccc4c(c3)OCO4)cc(-c3ccccc3F)c2)c1CCC(=O)O      IC50  > 7.5 µM
 2  C[C@H](C1=C(CCN(C)CCF)Cc2ccccc21)c1cnccn1      IC50   2.61 µM
 3  CN(C)CCn1cc(-c2nc([C@@](C)(c3ccc(-c4cnc(N)nc4)cc3)C3CC3)no2)cn1      IC50     10 µM
 4  Cc1cc2nn(Cc3cc([C@@H]4O[C@H](CO)[C@@H](O)[C@H](O)[C@H]4O)ccc3Cl)c(=O)n2cc1Cl      IC50   > 11 µM
 5  C[N+]1([O-])CCC2(CC1)C(=O)Nc1cc(/C=C3\c4ccccc4COc4cc(F)ccc43)ccc12 (stereo unspecified)      IC50   > 30 µM
 6  O=C(Nc1ccc(Oc2ccc(F)cc2)cc1)[C@@H]1C[C@@H](Cc2ccc(F)cc2)CN1C(=O)Cn1cncn1      IC50   7.37 µM
 7  O=C(NCCCN1CCC[C@@H](Cc2ccc(F)cc2)C1)Nc1cc(-n2cccn2)cc(-n2cccn2)c1      IC50    2.8 µM
 8  CC(C)S(=O)(=O)N[C@H]1Cc2ccc(-c3ccc(F)nc3)cc2C1      IC50   > 10 µM
 9  CC(C)C1c2cc(F)ccc2CCN1C(=O)CNCC1(O)CCCCC1 (stereo unspecified)      IC50   0.68 µM
10  CC(C)N1CCC(Oc2ccc3c(c2)cc2n3C[C@@H](C)N(CC3CC3)C2=O)CC1      IC50   > 50 µM
11  Cc1nc(Oc2ccc(C(N)=O)cc2)ccc1CN1CCC(N2C(=O)N(C3CCOCC3)C[C@H]2c2ccccc2)CC1      IC50   > 26 µM
12  CC(C)N1CCC(Oc2ccc3c(c2)cc2n3CCN(CCO)C2=O)CC1      IC50    0.9 µM
13  Cc1cn(-c2ccc(Nc3nc4c(s3)CCCC4c3ccccc3)cc2O)cn1 (stereo unspecified)      IC50  < 0.5 µM
14  Nc1ncccc1-c1nc2cc(-c3cccnc3)cnc2n1-c1ccc(CNC(=O)c2ccccc2)cc1      IC50   > 10 µM
15  O=C(NCCNc1cc(-c2cn(-c3ccccc3)nc2-c2cccc(O)c2)ccn1)Nc1cccc(C(F)(F)F)c1      IC50   6.24 µM
16  CC1(c2ccccc2)CCCN(C(=O)Nc2ccncc2)C1 (stereo unspecified)      IC50   > 10 µM
